Tested on: WiDr
PROTOCOL: Cytotoxicity in WiDr cells expressing surface-tethered carboxypeptidase G2 (CPG2)
Type: functional, cell-based
RECORDED_CONDITIONS: Homo sapiens
Answer each item with its documented IC50.
One number for each entry, in µM.

O=C(O)CC[C@H](NC(=O)Oc1ccc(COC(=O)Nc2ccccc2N(CCBr)CCBr)cc1)C(=O)O = 95.2
CS(=O)(=O)OCCN(CCCl)c1ccccc1NC(=O)OCc1ccc(OC(=O)N[C@@H](CCC(=O)O)C(=O)O)cc1 = 28.5
O=C(O)CC[C@H](NC(=O)Nc1ccc(COC(=O)Nc2ccccc2N(CCBr)CCBr)cc1)C(=O)O = 4.7

Pending molecule:
Give the reported IC50 for `CN(C(=O)OCc1ccc(OC(=O)N[C@@H](CCC(=O)O)C(=O)O)cc1)c1ccc(N(CCBr)CCBr)cc1` (system: WiDr).
3.6
